Recorded values, source the supplement of paper PMC9233669.

Test system: biotinyl-Ile-oxazolone
method description: self-aminoacylation, catalytic enhancement (BIO) (fold over background); higher = more active; k-Seq, kA / k0A0; sequences stand for … in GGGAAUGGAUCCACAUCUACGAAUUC…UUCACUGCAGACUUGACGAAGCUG
Variants at the floor of the assay were thinned out.
Quick rule for you: self-aminoacylation at 1 or higher means Criterion met, lower means Criterion not met.

Q: Confirm if self-aminoacylation reported for the sequence ACACACUUCAAGCAAGCGGUC [Fam1B.1 aminoacylation ribozyme variant] is 1 or above.
Result: Criterion met

###

System: biotinyl-Met-oxazolone
method description: self-aminoacylation, catalytic enhancement (BMO) (fold over background); higher = more active; k-Seq, kA / k0A0; sequences stand for … in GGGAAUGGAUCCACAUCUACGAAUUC…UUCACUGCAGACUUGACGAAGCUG
Fewer inactive variants are shown than the library holds.
Quick rule for you: self-aminoacylation at 1 or higher means rule met, lower means rule not met.

Answered cases to consult:
>>> assigned_category("AUGCACAUAGGUCAUCGGGUG [Fam2.2 aminoacylation ribozyme variant]")
"rule met"
>>> assigned_category("CAACACUACAAGCAAUCGGUC [Fam1B.1 aminoacylation ribozyme variant]")
"rule not met"
>>> assigned_category("ACACACUUCAAUCAAUCGGUC [Fam1B.1 aminoacylation ribozyme variant]")
"rule met"

Q: Confirm if self-aminoacylation reported for the sequence AUUACGCUGGUCAUCGAGUCA [Fam2.1 aminoacylation ribozyme variant] is 1 or above.
Result: rule met

Q: And for AAGUGUGCUAAUUGUCGCAAG [Fam3.1 aminoacylation ribozyme variant] ?
Result: rule met

Q: And for CCACACUUCAAGCAACCCGUC [Fam1B.1 aminoacylation ribozyme variant] ?
Result: rule not met

Q: And for CCACACUACAUGCAAUCGGUC [Fam1B.1 aminoacylation ribozyme variant] ?
Result: rule not met

Q: And for AUUCACCUAGGUACUCGGGUG [Fam2.2 aminoacylation ribozyme variant] ?
Result: rule met

###

Please provide measured self-aminoacylation for the entries that follow.
Tested on: biotinyl-Val-oxazolone
method description: self-aminoacylation, catalytic enhancement (BVO) (fold over background); higher = more active; k-Seq, kA / k0A0; sequences stand for … in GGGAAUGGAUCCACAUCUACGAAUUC…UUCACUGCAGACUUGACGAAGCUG
This sample holds only a part of the variants without activity.
Numbers only.

>>> observed("CUACUUCUAUCAAUCGGUCUG [Fam1A.1 aminoacylation ribozyme variant]")
0.63
>>> observed("AUUACCCUGGACAUCGAGCGA [Fam2.1 aminoacylation ribozyme variant]")
1.07
>>> observed("AUUACCGUGGUCAUCGAGUUA [Fam2.1 aminoacylation ribozyme variant]")
1.02
>>> observed("AUUCACGUAGGUCAUCGGGGG [Fam2.2 aminoacylation ribozyme variant]")
2.09
>>> observed("AAGUUUGCUAAUAGUAGCAAC [Fam3.1 aminoacylation ribozyme variant]")
1.15
>>> observed("AAGUUUAGUAAUAGUCGCAAG [Fam3.1 aminoacylation ribozyme variant]")
1.55
>>> observed("AUUACCCUGGUCAUCACGUGA [Fam2.1 aminoacylation ribozyme variant]")
4.39
>>> observed("AUUACCCUGGUCAUGGAGUGU [Fam2.1 aminoacylation ribozyme variant]")
1.98
>>> observed("AAGUUUGCUCAUAGUAGCAAG [Fam3.1 aminoacylation ribozyme variant]")
1.09
>>> observed("CCAGACUCCAAGCAAUCGGUC [Fam1B.1 aminoacylation ribozyme variant]")
1.23

Please look at the items below and tell me self-aminoacylation for each one, in order.
1. AGUACCCUGGUCAUCGAGUGG [Fam2.1 aminoacylation ribozyme variant]
2. AUUCACGUAGGUCAGCGGGUG [Fam2.2 aminoacylation ribozyme variant]
3. CCACACUUCAAGCCGUCGGUC [Fam1B.1 aminoacylation ribozyme variant]
4. AUUCAACUAGGUCAUCCGGUG [Fam2.2 aminoacylation ribozyme variant]
5. AUACACCUAGAUCAUCGGGUG [Fam2.2 aminoacylation ribozyme variant]
6. CCACAUUUCAAGCACUCGGUC [Fam1B.1 aminoacylation ribozyme variant]

Result:
1: 2.65; 2: 2.48; 3: 1.49; 4: 3.72; 5: 1.69; 6: 1.37

Please look at the items below and tell me self-aminoacylation for each one, in order.
1. CCUCACUUCAAGCAACCGGUC [Fam1B.1 aminoacylation ribozyme variant]
2. AUUCACCUCGUUCAUCGGGUG [Fam2.2 aminoacylation ribozyme variant]

Result:
1: 0.834; 2: 3.3
